target desc: Prostaglandin G/H synthase 2 (Homo sapiens)
Sequence (whole entry): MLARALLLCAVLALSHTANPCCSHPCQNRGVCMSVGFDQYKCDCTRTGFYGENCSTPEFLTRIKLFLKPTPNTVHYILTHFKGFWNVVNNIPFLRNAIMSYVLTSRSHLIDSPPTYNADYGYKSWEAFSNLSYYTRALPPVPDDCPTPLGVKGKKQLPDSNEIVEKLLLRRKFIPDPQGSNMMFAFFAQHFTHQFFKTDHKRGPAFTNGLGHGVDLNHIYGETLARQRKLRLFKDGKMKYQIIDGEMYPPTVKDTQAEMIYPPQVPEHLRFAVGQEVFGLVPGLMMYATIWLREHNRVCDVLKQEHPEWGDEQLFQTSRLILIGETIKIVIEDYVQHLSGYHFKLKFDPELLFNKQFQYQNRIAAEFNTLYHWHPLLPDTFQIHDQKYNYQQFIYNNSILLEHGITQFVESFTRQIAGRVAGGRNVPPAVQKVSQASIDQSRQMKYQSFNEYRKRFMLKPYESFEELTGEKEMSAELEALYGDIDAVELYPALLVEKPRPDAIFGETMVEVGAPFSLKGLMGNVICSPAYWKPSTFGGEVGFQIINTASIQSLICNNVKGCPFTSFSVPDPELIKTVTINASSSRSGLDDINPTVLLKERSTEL
test name: Inhibition of human COX-2 assessed as peroxidase activity using arachidonic acid as substrate at 50 uM by colorimetric method
Listed molecules paired with reported inhibition
value kind: inhibition

COc1ccc(-c2noc(CC(=O)NCCCCN)c2-c2ccc(OC)cc2)cc1
51%
CCCCC/C=C\C/C=C\C/C=C\C/C=C\CCCC(=O)Nc1ccc(-c2ccc(NC(=O)Cc3onc(-c4ccc(OC)cc4)c3-c3ccc(OC)cc3)cc2)cc1
60%
CCCCC/C=C\C/C=C\C/C=C\C/C=C\CCCC(=O)NCCCCNC(=O)Cc1onc(-c2ccc(OC)cc2)c1-c1ccc(OC)cc1
61%
COc1ccc(-c2noc(CC(=O)NCCNC(=O)Cc3onc(-c4ccc(OC)cc4)c3-c3ccc(OC)cc3)c2-c2ccc(OC)cc2)cc1
45%
COc1ccc(-c2noc(CC(=O)Nc3ccc(-c4ccc(N)cc4)cc3)c2-c2ccc(OC)cc2)cc1
71%
COc1ccc(-c2noc(CC(=O)Nc3ccc(N)cc3)c2-c2ccc(OC)cc2)cc1
79%

###

Listed compounds paired with reported IC50
target desc: Prostaglandin G/H synthase 2 (Homo sapiens, UniProt P35354)
value kind: IC50 (µM)

COc1ccc(-c2noc(CC(=O)Nc3ccc(-c4ccc(N)cc4)cc3)c2-c2ccc(OC)cc2)cc1
0.3
COc1ccc(-c2noc(CC(=O)NCCNC(=O)Cc3onc(-c4ccc(OC)cc4)c3-c3ccc(OC)cc3)c2-c2ccc(OC)cc2)cc1
0.12
CCCCC/C=C\C/C=C\C/C=C\C/C=C\CCCC(=O)NCCCCNC(=O)Cc1onc(-c2ccc(OC)cc2)c1-c1ccc(OC)cc1
0.8

###

Listed molecules paired with reported Ratio IC50
test name: Selectivity index, ratio of IC50 for human COX-2 to IC50 for ovine COX-1
value kind: Ratio IC50

CCCCC/C=C\C/C=C\C/C=C\C/C=C\CCCC(=O)NCCCCNC(=O)Cc1onc(-c2ccc(OC)cc2)c1-c1ccc(OC)cc1
0.05
COc1ccc(-c2noc(CC(=O)NCCCCCCNC(=O)Cc3onc(-c4ccc(OC)cc4)c3-c3ccc(OC)cc3)c2-c2ccc(OC)cc2)cc1
> 5.5
COc1ccc(-c2noc(CC(=O)NCCNC(=O)Cc3onc(-c4ccc(OC)cc4)c3-c3ccc(OC)cc3)c2-c2ccc(OC)cc2)cc1
9
COc1ccc(-c2noc(CC(=O)Nc3ccc(-c4ccc(N)cc4)cc3)c2-c2ccc(OC)cc2)cc1
4
COc1ccc(-c2noc(CC(=O)NCCCCCCCCCCCCNC(=O)Cc3onc(-c4ccc(OC)cc4)c3-c3ccc(OC)cc3)c2-c2ccc(OC)cc2)cc1
> 7
COc1ccc(-c2noc(CC(=O)NCCCCNC(=O)Cc3onc(-c4ccc(OC)cc4)c3-c3ccc(OC)cc3)c2-c2ccc(OC)cc2)cc1
> 9
COc1ccc(-c2noc(CC(=O)Nc3ccc(N)cc3)c2-c2ccc(OC)cc2)cc1
0.02
COc1ccc(-c2noc(CC(=O)Nc3ccc(NC(=O)Cc4onc(-c5ccc(OC)cc5)c4-c4ccc(OC)cc4)cc3)c2-c2ccc(OC)cc2)cc1
> 333
CCCCC/C=C\C/C=C\C/C=C\C/C=C\CCCC(=O)Nc1ccc(-c2ccc(NC(=O)Cc3onc(-c4ccc(OC)cc4)c3-c3ccc(OC)cc3)cc2)cc1
0.005
COc1ccc(-c2noc(CC(=O)NCCCCN)c2-c2ccc(OC)cc2)cc1
3.7
COc1ccc(-c2noc(CC(=O)Nc3ccc(-c4ccc(NC(=O)Cc5onc(-c6ccc(OC)cc6)c5-c5ccc(OC)cc5)cc4)cc3)c2-c2ccc(OC)cc2)cc1
> 625

###

test name: Hemolytic activity against human erythrocytes assessed as hemolysis incubated for 3 hrs by spectrophotometric analysis relative to control
Assay type: ADME, cell-based, Erythrocyte
condition parameters: read-out: Activity
value kind: hemolysis at 3 h (%)

CCCCC/C=C\C/C=C\C/C=C\C/C=C\CCCC(=O)Nc1ccc(-c2ccc(NC(=O)Cc3onc(-c4ccc(OC)cc4)c3-c3ccc(OC)cc3)cc2)cc1
0.14
COc1ccc(-c2noc(CC(=O)Nc3ccc(-c4ccc(NC(=O)Cc5onc(-c6ccc(OC)cc6)c5-c5ccc(OC)cc5)cc4)cc3)c2-c2ccc(OC)cc2)cc1
0
CCCCC/C=C\C/C=C\C/C=C\C/C=C\CCCC(=O)Nc1ccc(NC(=O)Cc2onc(-c3ccc(OC)cc3)c2-c2ccc(OC)cc2)cc1
0
COc1ccc(-c2noc(CC(=O)O)c2-c2ccc(OC)cc2)cc1
0
COc1ccc(-c2noc(CC(=O)Nc3ccc(NC(=O)Cc4onc(-c5ccc(OC)cc5)c4-c4ccc(OC)cc4)cc3)c2-c2ccc(OC)cc2)cc1
0
CC(=O)Oc1ccccc1C(=O)O
0

###

target desc: Prostaglandin G/H synthase 1 (Ovis aries, UniProt P05979)
Sequence (P05979 whole entry): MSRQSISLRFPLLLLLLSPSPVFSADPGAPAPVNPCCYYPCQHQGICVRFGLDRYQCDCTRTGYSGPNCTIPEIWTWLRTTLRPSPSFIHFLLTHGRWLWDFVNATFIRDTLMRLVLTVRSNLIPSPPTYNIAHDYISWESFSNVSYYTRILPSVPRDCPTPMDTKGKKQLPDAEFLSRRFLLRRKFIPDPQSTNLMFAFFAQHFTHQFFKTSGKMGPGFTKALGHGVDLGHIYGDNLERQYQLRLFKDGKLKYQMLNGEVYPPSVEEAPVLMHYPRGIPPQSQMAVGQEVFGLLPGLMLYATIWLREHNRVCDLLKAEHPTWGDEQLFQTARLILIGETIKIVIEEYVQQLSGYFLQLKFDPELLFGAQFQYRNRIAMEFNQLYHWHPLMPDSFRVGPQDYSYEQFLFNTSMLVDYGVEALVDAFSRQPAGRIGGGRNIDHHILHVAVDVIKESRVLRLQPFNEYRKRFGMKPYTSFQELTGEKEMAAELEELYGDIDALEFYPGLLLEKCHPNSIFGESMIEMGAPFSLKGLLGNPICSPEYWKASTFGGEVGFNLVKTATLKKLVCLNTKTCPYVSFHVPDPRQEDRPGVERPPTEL
pIC50: −log10 of the molar value.
Decision: pIC50 compared against 7; not below it gives true, below it gives false.

COc1ccc(-c2noc(CC(=O)Nc3ccc(N)cc3)c2-c2ccc(OC)cc2)cc1
false
COc1ccc(-c2noc(CC(=O)NCCCCNC(=O)Cc3onc(-c4ccc(OC)cc4)c3-c3ccc(OC)cc3)c2-c2ccc(OC)cc2)cc1
false
CCCCC/C=C\C/C=C\C/C=C\C/C=C\CCCC(=O)Nc1ccc(NC(=O)Cc2onc(-c3ccc(OC)cc3)c2-c2ccc(OC)cc2)cc1
true

###

Listed molecules paired with reported Activity
Test system: Vero
test name: Cytotoxicity against African green monkey Vero cells at 10 uM measured after 48 hrs by MTT assay relative to control
Type: cell-based
condition parameters: chlorocebus sabaeus
value kind: Activity

CCCCC/C=C\C/C=C\C/C=C\C/C=C\CCCC(=O)Nc1ccc(-c2ccc(NC(=O)Cc3onc(-c4ccc(OC)cc4)c3-c3ccc(OC)cc3)cc2)cc1
94%
CC(=O)Oc1ccccc1C(=O)O
100%
COc1ccc(-c2noc(CC(=O)Nc3ccc(NC(=O)Cc4onc(-c5ccc(OC)cc5)c4-c4ccc(OC)cc4)cc3)c2-c2ccc(OC)cc2)cc1
98%
COc1ccc(-c2noc(CC(=O)O)c2-c2ccc(OC)cc2)cc1
97%
CCCCC/C=C\C/C=C\C/C=C\C/C=C\CCCC(=O)Nc1ccc(NC(=O)Cc2onc(-c3ccc(OC)cc3)c2-c2ccc(OC)cc2)cc1
93%
COc1ccc(-c2noc(CC(=O)Nc3ccc(-c4ccc(NC(=O)Cc5onc(-c6ccc(OC)cc6)c5-c5ccc(OC)cc5)cc4)cc3)c2-c2ccc(OC)cc2)cc1
100%

###

Listed compounds paired with reported PT
System: Plasma
test name: Anticoagulant activity in human plasma assessed as prothrombin time at 100 uM
Format: functional
value kind: PT (s)

COc1ccc(-c2noc(CC(=O)Nc3ccc(-c4ccc(NC(=O)Cc5onc(-c6ccc(OC)cc6)c5-c5ccc(OC)cc5)cc4)cc3)c2-c2ccc(OC)cc2)cc1
15.1
CCCCC/C=C\C/C=C\C/C=C\C/C=C\CCCC(=O)Nc1ccc(NC(=O)Cc2onc(-c3ccc(OC)cc3)c2-c2ccc(OC)cc2)cc1
15.3
CCCCC/C=C\C/C=C\C/C=C\C/C=C\CCCC(=O)Nc1ccc(-c2ccc(NC(=O)Cc3onc(-c4ccc(OC)cc4)c3-c3ccc(OC)cc3)cc2)cc1
14.6
CC(=O)Oc1ccccc1C(=O)O [ASPIRIN]
14.6
COc1ccc(-c2noc(CC(=O)Nc3ccc(NC(=O)Cc4onc(-c5ccc(OC)cc5)c4-c4ccc(OC)cc4)cc3)c2-c2ccc(OC)cc2)cc1
15.5
COc1ccc(-c2noc(CC(=O)O)c2-c2ccc(OC)cc2)cc1 [MOFEZOLAC]
14.2

Attribution: ChEMBL document CHEMBL4706621
